# MEASUREMENT_NOTES: yeast display, Sf9 membrane polyspecificity reagent, FACS + sequencing; frameworks hold sequencing errors
REPORTED_METRIC: polyreactivity (PSR sort gate)

QVQLQESVVGLEQAGGSLRLSCAASGNIFPTDRMGWYRQAPGKELEFVATISHGGSTNYADSVKGRFTISRVNAKNTVYLQLNSLKPEDTAVYYCAVWSLGRWRHYYWGQGTQVTVSS: low polyreactivity
QVQLVESGGGLVQAGGSLRLSCAAAGSTFSSYAMGWYRQAPGKERELVAAITSSGGSTYYADSVKGRFSISRDNAKNTVYIQKNSLKPEDTAVYYCAAADVIFWLYYYWGQGTQVTVSS: low polyreactivity
QVQLVESGGGLVQAGGSLRLSCAASGSTFPFYAMGWYRQAPGTERELVAAITSGGSTYADSVKGRFTISRDNAKNTVYLQMNSLKPEDTAVYYCAASWPRWWRFGYWGQGTQVTVSS: low polyreactivity
QVQLVESGGGLVQAGGSLRLSCAASGSIFRTNAMGWYREAPGKERELVAAITGRGGSTYYADSVKGRFTISRDYAKNTVYLQMNSLKPEDTAVYYCAAAYGTWKFLATTEDYWGQGTQVTVSS: high polyreactivity
QVKLVESGGGLVQAGGSLRLSCAASGFTIQRYAMGWYRQAPGKERELVAAITSGGSTYYADSVKGRFTISRDNAKNTVYLQMNSLKPEDTAVYYCATRAVWSSWGRRYDSWGQGTQVTVSS: high polyreactivity
QDQLVESGGGLVQAGGSLRLSCAASGRIFSVNAMGWYRQAPGKERELVAAISRRGTSTFYADSVKGRFTISRDNAKNTVYLQMNSLKPEDTAVYYCAADFYPYQYKFDYWGQGTQVTVSS: high polyreactivity
QVQLVESGGGLVQAGGSLRLSCAASGGICGYYAMGWYRQAPGKERELVAAISWTGGSTYYADSVKGRFTISRDNAKNTVYLQMNSLKPEDTAVYYCAASDSFGYDYWGQGTQVTVSS: high polyreactivity
QVQLVESVGGLVQAGGSLRISCAASGSTLTRNTMGWYRPAPGKEREFVATITRSGGSTYYADSVKGRFTISRDNAKNTVYLQMNSLKPEDTAVYYCAVRRQTFRYVYPGMDYWGQGTQVTVSS: high polyreactivity
QVQLVESGGGLVQAGGSLRLSCAASGSIFVRNGMGWYRQAPGKERELVASITSGTITYYADSVKGRFTISRDNAKNTVYLQINSLKPEDTAVYYCNAGCRSSRFKRPYFRERNYWGQGTQVTVSS: high polyreactivity
QVQLVESGGGLVQAGGSLRLSCAASGSIFRSYAMGWYRQAPGKERELVAAISGRGSNTYYADSVKGRFTISRDNAKNTVYLQMNSLKPEDTAVYYCATRQWVFSHGYWGQGTQVTVSS: high polyreactivity

Attention now shifts to the item below.
// query Which polyreactivity (PSR sort gate) is listed for "QVQLVESGGGLVQAGGSLRLRCAASGRIFGYYPMGWYRQAPGKERELDADITESGTSTYYADSVKGRFTISRDNAKNTVYLQMNSLKRVDTAVYYCAAGYWWRYALYGYWGQGTQVTVSS" ?
// result low polyreactivity

====

# MEASUREMENT_NOTES: yeast display, Sf9 membrane polyspecificity reagent, FACS + sequencing; frameworks hold sequencing errors
REPORTED_METRIC: polyreactivity (PSR sort gate)

Below, each entry is followed by its recorded polyreactivity (PSR sort gate) result.
QVQLVESGGGLVQAGGSLRLTCAASGITFYGYAMGWYRQAPGKERELVAAISKSGGSTHYADSVKGRFTISRDNAKNTVYLQMNSLKPEDTAVYYCAAAYWTRLRRMDYWGQGTQVTVSS: low polyreactivity
QVQLVESGGGLVQAGGSLRLSCAASGRIFYSYAMGWYRQAPGKERELVASITSSGGSTYADSVKGRFTISRDNAKNTVYLQMNSLKPEDTAVYYFDYWGQGTQVTVSS: low polyreactivity
QVQLVESGGGLVQAGGSLRLSCAASGSTFTAYGMGWYRQAPGKERELVAAITWRGGRTYYADSVKGRFTISRDNAKNTVYLQMNSLKPEDTAVYYCAKGAVWRYTTKYGYDYWGQGTQVTVSS: high polyreactivity
QVQLVESGGGLVQAGGSLRLSCAASGSIFVTYAMGWYRQAPGKERELVAAISTSGGSTYADSVKGRFTISRDNAKNTVYLQMNSLKPEDTAVYYCNADDPGYAVPWYWFKYDYWGQGTQVTGSS: low polyreactivity
QVQLVDSGGGLVQAGGSLRLSCAASGSIFSAYAMGWYRQAPGKERELVAAITFGGSTYYADSVKGRFTISRDNAKNTVYLQMNSLKPEDTAVYYCNAYYPFVGLYLGHDYWGQGTQVTVSS: low polyreactivity

// query Which polyreactivity (PSR sort gate) is listed for "QVQLVESGGGLVQAGGSLRLSCAASGRTFRWYAMGWYRQAPGKEMELVAALTFRGGRTYYADSVKGRFTISRDNAKNTVYLQMNSLKPEDTAVYYCNAVTYSSPYRFDYWGQGTQVTVSS" ?
// result low polyreactivity

// query Which polyreactivity (PSR sort gate) is listed for "QVQLVESGGGLVQAGGSLRLSCAASGRTFVKYAMGWYRQAPGKERELVAAISSRGSSTYYADSVKGRFTISRDNAKNTVYLQMNSLKPEETAVYYCNAVYYYNPGYDYWGQGTQVTVSS" ?
// result high polyreactivity

// query Which polyreactivity (PSR sort gate) is listed for "QVQLVESGGGLVQAGGSLRLRCAASGSIFNSYAMGWYIQAPGKERELVAAISIRGTRTYYADSVKGRFTISRDNAKNTVYLQMNSLKPEDTAVYYCAADASYTEGMDYWGQGTQVTVLS" ?
// result high polyreactivity

// query Which polyreactivity (PSR sort gate) is listed for "QVQLVESGGGLVQAGGSLRLSCAASGITIYDYTMGWYRQAPGKERELVAVITSAGSTYYADSVKGRFTISRDNAKNTVYLQMNSLKPEDTAVYYCAAVIVSRGRKYRLDYWGQGTQVTVSS" ?
// result high polyreactivity

// query Which polyreactivity (PSR sort gate) is listed for "KVQLVESGGGLVQAGGSLRLSCAASGLTFSYYAMGWYRQAPGKERELVAAITRSGTRTYYADSVKGRFTISRDNAKNTVYLQMNSLKPEDTAVYYCARYLRGDFQQGEHWGQGTQVTVSS" ?
// result high polyreactivity

// query Which polyreactivity (PSR sort gate) is listed for "QVQLVESGGGLVQAGGSLRLSCAASGRIFGRNAMGWSRQAPGKERELVASITSGGSTNYADSVKGRFTISRYNAKNTVYLQMNSLKPEDTAVYYCNARWTGSYTSTGFRRRFDYWGQGTQVTVSS" ?
// result high polyreactivity
